Origin of values: patent US20060069132A1

tested on: Surinam grass; experiment: Test B pre-/postemergence herbicide test; type: in vivo, Urochloa decumbens; conditions: postemergence, 125 g ai/ha; visual rating, scale 0 (no effect) to 100 (complete control)
Form field: Surinam Grass plant response rating (one value per entry).
Give the figure only, with no unit attached.

// returns Surinam Grass plant response rating for CCNC(=O)c1ccc(F)c(NC(=O)c2c(F)c(C(C)(C)C)nn2CC)c1 [Compound 275] with Surinam grass; value = 10

// returns Surinam Grass plant response rating for COc1ccc(C(C)=NO)cc1NC(=O)c1cc(C(C)(C)C)nn1C [Compound 104] with Surinam grass; value = 0

// returns Surinam Grass plant response rating for CCn1nc(C(C)(C)C)cc1C(=O)Nc1cc(C(=O)OC)c(OC)cc1F [Compound 75] with Surinam grass; value = 10

// returns Surinam Grass plant response rating for CCN(C)C(=O)c1cccc(NC(=O)c2sc(C(C)(C)C)nc2C)c1 [Compound 227] with Surinam grass; value = 10

----------
Form field: Lambsquarters plant response rating (one value per entry).
test system: lambsquarters; assay: Test B pre-/postemergence herbicide test; type: in vivo, Chenopodium album; settings: 125 g ai/ha; visual rating, scale 0 (no effect) to 100 (complete control); postemergence
Give the figure only, with no unit attached.

Record summary for CCN1N=C(C(C)(C)C)CC1C(=O)Nc1cc(C(=O)N2CCCCC2)ccc1F (racemic) : reported Lambsquarters plant response rating = 60

Record summary for C#CCNC(=O)c1cccc(NC(=O)c2nn(C(C)(C)C)nc2CC)c1 : reported Lambsquarters plant response rating = 60

Record summary for CCC1=NN(C(C)(C)C)CC1C(=O)Nc1cc(C(=O)N(C)CC)ccc1F (racemic) : reported Lambsquarters plant response rating = 60

----------
Form field: Plant response rating, Nutsedge, Yellow (one value per entry).
tested on: yellow nutsedge; assay: Test C pre-/postemergence herbicide test; assay type: in vivo, Cyperus esculentus; settings: 500 g ai/ha; scale 0 to 100 (0 no effect, 100 complete control); visual, 12 to 14 days; preemergence
Give the figure only, with no unit attached.

compound="CCc1nn(C(C)(C)C)nc1C(=O)Nc1cccc(C(=O)NC2CC2)c1 [Compound 417]" number=0

Record summary for CCC1=NN(C(C)(C)C)CC1C(=O)Nc1cc(C(=O)N2CCCC2)ccc1F (racemic) [Compound 341] : reported Plant response rating, Nutsedge, Yellow = 60

Record summary for CCc1nc(C(C)(C)C)sc1C(=O)Nc1cccc(C(=O)NCC2CC2)n1 [Compound 215] : reported Plant response rating, Nutsedge, Yellow = 0

Record summary for CCn1nc(C(C)(C)C)cc1C(=O)Nc1cncc(C(=O)N(C)C)n1 [Compound 287] : reported Plant response rating, Nutsedge, Yellow = 85

----------
test system: velvetleaf; experiment: Test B pre-/postemergence herbicide test; format: in vivo, Abutilon theophrasti; conditions: 125 g ai/ha; 0 is no effect, 100 is complete control; preemergence
Form field: Plant response rating (0 to 100 scale), Velvetleaf (one value per entry).
Give the figure only, with no unit attached.

Please review the entries below; each comes with its answer.
compound=C#CCNC(=O)c1cccc(NC(=O)c2nn(C(C)C)nc2CC)c1 number=10
compound=Cc1nn(C(C)(C)C)nc1C(=O)Nc1cncc(C(=O)N(C)C)c1 number=10
compound=CCc1nn(C(C)(C)CC)nc1C(=O)Nc1cccc(C(=O)N(C)C)c1 number=10
compound="CCNC(=O)c1ccc(F)c(NC(=O)C2CN(C(C)(C)C)N=C2CC)c1 (centres unmarked)" number=30

Now for the compound whose Plant response rating (0 to 100 scale), Velvetleaf we want.
Record summary for C#CCNC(=O)c1cccc(NC(=O)c2cc(C(C)(C)C)nn2C)n1 : reported Plant response rating (0 to 100 scale), Velvetleaf = 0
